molecular target: Protein-S-isoprenylcysteine O-methyltransferase (Homo sapiens); assay: Inhibition of His-tagged human Icmt membrane protein over-expressed in Saccharomyces cerevisiae 2766 using [14C]-SAM and N-acetyl-S-farnesyl-l-cysteine as substrate measured after 30 mins by scintillation counting; details: read-out: IC50
Sequence (O60725 whole entry): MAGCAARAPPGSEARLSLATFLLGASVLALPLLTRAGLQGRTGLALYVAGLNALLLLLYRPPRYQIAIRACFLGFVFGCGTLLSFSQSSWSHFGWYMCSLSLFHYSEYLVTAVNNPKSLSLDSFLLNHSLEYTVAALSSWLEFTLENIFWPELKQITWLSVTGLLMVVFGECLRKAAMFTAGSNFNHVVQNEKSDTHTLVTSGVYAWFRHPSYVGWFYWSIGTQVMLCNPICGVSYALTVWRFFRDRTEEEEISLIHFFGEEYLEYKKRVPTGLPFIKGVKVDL
pIC50: −log10 of the molar value.
measured.metric: pIC50

smiles.input	measured.metric	val
CC(C)=CCC/C(C)=C/CC/C(C)=C/CSC[C@H](NC(=O)c1ccccc1COCc1ccccc1)C(=O)O	pIC50	4.31
CC(C)=CCC/C(C)=C/CC/C(C)=C/CC/C(C)=C/CSC[C@H](NC(=O)c1ccccc1Oc1ccccc1)C(=O)O	pIC50	4.42
CC(C)=CCC/C(C)=C/CC/C(C)=C/CSC[C@H](NC(=O)c1cccc(Oc2ccccc2)c1)C(=O)O	pIC50	4.65
CC(C)=CCC/C(C)=C/CC/C(C)=C/CSC[C@H](NC(=O)c1cccc2c1oc1ccccc12)C(=O)O	pIC50	4.24
CC(C)=CCC/C(C)=C/CC/C(C)=C/CSC[C@H](NC(=O)c1ccccc1Sc1ccccc1)C(=O)O	pIC50	4.83
CC(C)=CCC/C(C)=C/CC/C(C)=C/CSC[C@H](NC(=O)c1ccccc1COc1ccccc1)C(=O)O	pIC50	4.12
CC(C)=CCC/C(C)=C/CC/C(C)=C/CSC[C@H](NC(=O)c1ccccc1Oc1ccccc1)C(=O)O	pIC50	5.21
CC(C)=CCC/C(C)=C/CC/C(C)=C/CSC[C@H](NC(=O)c1ccc(Oc2ccccc2)cc1)C(=O)O	pIC50	4.20
